Species on record: Rattus norvegicus
test_details: Open TG-GATES - Regimen: Daily Repeat
Format: toxicity, organism-based, Sprague-Dawley
Design: regimen Daily Repeat, gender Male, age 6 weeks
experimental_parameters: in vivo, po, 0 mg/kg, 72 h, tissue Blood, route gavage, dose level Control, time 3 day
Please assign label 0 whenever Eos is at or above 1%, and label 1 whenever it is below.

# compound, category_label
data = [
    ("NNC(=O)c1ccncc1", "label 0"),
]

Lab note: next compound to report on.
Does CN1C(=O)CN=C(c2ccccc2)c2cc(Cl)ccc21 have Eos strictly under 1%?
label 0

----------
Species on record: Rattus norvegicus
test_details: Open TG-GATES - Regimen: Daily Repeat
Assay type: toxicity, organism-based, Sprague-Dawley
Parameters: regimen Daily Repeat, gender Male, age 6 weeks
experimental_parameters: in vivo, po, 300 mg/kg, […], tissue Blood, route gavage, dose level Middle, time 14 day
readout_name: Ret (%)
Your answer is read as %, so omit the unit and give the number.

# molecule, uom, endpoint_value
measured = [
    ("CCOC(=O)CCC(=O)O[C@H]1[C@H](O[C@@H]2[C@@H](C)[C@H](O[C@H]3C[C@@](C)(OC)[C@@H](O)[C@H](C)O3)[C@@H](C)C(=O)O[C@H](CC)[C@@](C)(O)[C@H](O)[C@@H](C)C(=O)[C@H](C)C[C@@]2(C)O)O[C@H](C)C[C@@H]1N(C)C [ERYTHROMYCIN ETHYLSUCCINATE]", "%", 4.9),
    ("COC1=CC(=O)C[C@@H](C)[C@]12Oc1c(Cl)c(OC)cc(OC)c1C2=O", "%", 2.8),
    ("NC(N)=Nc1nc(CSCCC(N)=NS(N)(=O)=O)cs1", "%", 4.3),
    ("COc1ccc2[nH]c([S+]([O-])Cc3ncc(C)c(OC)c3C)nc2c1 (stereo not given)", "%", 4.2),
]

# context switch: different molecule, same Ret
CCOc1ccc(NC(=O)CC(C)O)cc1 (stereo not given) yielded Ret of 4.7
